organism: Rattus norvegicus; experiment: Open TG-GATES - Regimen: Single; type: toxicity, organism-based, Sprague-Dawley; set-up: regimen Single, gender Male, age 6 weeks; details: in vivo, po, 0 mg/kg, 9 h, tissue Plasma, route gavage, dose level Control
metricName: TP (g/dL)
Your answer is read as g/dL, so omit the unit and give the number.

# annotated cases, reported TP shown
compound | measValue
CN(C)CCCN1c2ccccc2Sc2ccc(Cl)cc21 [CHLORPROMAZINE] | 5.4
Nc1ccc(Cc2ccc(N)cc2)cc1 | 5.6
CCO [ALCOHOL] | 5.3
COc1cc2ncnc(Nc3ccc(F)c(Cl)c3)c2cc1OCCCN1CCOCC1 [GEFITINIB] | 5.4

Field: next compound
Input: Recall and state the measured TP for O=c1ccc2ccccc2o1 [COUMARIN] .
Output: 5.5
